Recorded Ratio for the following compounds
molecular target: Angiotensin II receptor (Homo sapiens) (UniProt P30556+P50052); assay: Ratio of inhibitory concentration against AT2 receptor and AT1 receptor of human adrenal membrane
Give the figure by itself; no unit, no explanation.

Observe how each entry below is paired with its result.
smiles.structure: Cc1nc2ccc(NC(=O)N(C)C(C)C)cc2c(=O)n1Cc1ccc(-c2ccccc2S(=O)(=O)NC(=O)OCCC(C)C)cc1F
Ratio: 0.47
--
smiles.structure: CCCCc1nc2ccc(NC(=O)N(C)C(C)C)cc2c(=O)n1Cc1ccc(-c2ccccc2S(=O)(=O)NC(=O)OCCC2CC2)cc1F
Ratio: 7.6

-- ask Give the measured Ratio of CCCCOC(=O)NS(=O)(=O)c1ccccc1-c1ccc(Cn2c(CCCC)nc3ccc(NC(=O)N(C)C(C)C)cc3c2=O)c(F)c1 .
-- reply 8.7

-- ask Requested field: Ratio. Item: CCc1nc2ccc(NC(=O)N(C)C(C)C)cc2c(=O)n1Cc1ccc(-c2ccccc2S(=O)(=O)NC(=O)OCCC2CC2)cc1F
-- reply 0.87

-- ask Name the reported Ratio value associated with the compound CCCc1nc2ccc(NC(=O)NC(C)C)cc2c(=O)n1Cc1ccc(-c2ccccc2S(=O)(=O)NC(=O)c2ccc(CC)cc2F)cc1F
-- reply 5.3
